- Target: ΔF508-CFTR (Homo sapiens, UniProt P13569, DEL508-508)
- Construct: host or cells: CFBE41o-, doxycycline-inducible
- Sequence (P13569 with tags, fused parts or gaps DEL508-508): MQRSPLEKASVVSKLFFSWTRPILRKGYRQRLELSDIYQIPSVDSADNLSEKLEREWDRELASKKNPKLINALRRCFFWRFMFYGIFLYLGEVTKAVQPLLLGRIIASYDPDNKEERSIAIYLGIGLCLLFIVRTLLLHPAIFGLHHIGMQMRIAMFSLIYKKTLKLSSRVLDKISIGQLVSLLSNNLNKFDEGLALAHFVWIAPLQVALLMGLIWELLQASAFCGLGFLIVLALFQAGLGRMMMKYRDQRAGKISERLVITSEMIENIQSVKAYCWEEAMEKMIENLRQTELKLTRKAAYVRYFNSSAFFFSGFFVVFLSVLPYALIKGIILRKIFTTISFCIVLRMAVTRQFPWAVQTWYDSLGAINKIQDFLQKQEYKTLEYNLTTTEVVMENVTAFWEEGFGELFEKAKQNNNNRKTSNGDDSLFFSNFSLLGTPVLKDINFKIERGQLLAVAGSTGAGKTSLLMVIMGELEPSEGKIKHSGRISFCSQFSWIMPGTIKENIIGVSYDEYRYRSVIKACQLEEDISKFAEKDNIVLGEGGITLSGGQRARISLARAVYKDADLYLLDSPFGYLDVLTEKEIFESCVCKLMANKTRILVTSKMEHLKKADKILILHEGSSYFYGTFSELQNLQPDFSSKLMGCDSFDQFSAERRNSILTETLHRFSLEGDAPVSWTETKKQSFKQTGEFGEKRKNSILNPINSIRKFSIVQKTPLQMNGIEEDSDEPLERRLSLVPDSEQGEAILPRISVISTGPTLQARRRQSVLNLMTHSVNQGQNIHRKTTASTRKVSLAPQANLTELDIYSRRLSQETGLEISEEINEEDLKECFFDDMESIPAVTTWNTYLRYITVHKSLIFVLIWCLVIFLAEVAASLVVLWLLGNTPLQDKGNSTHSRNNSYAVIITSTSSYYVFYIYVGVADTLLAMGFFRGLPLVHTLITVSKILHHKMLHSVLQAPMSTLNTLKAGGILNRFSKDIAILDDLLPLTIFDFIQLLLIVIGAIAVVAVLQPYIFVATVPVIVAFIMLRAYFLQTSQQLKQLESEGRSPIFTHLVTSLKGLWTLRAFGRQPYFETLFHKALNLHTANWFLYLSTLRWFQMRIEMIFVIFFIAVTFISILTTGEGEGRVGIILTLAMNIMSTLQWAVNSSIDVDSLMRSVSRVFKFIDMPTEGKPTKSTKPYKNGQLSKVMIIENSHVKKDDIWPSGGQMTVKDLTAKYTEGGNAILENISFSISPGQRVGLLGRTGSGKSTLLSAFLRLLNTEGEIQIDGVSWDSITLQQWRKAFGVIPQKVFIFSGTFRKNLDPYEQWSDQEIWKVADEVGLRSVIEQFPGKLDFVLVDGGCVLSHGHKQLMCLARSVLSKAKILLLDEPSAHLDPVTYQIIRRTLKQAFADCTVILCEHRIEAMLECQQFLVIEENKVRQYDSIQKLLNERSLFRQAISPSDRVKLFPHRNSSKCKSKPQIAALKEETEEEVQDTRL
- Assay notes: CFTR cell surface levels using HRP-tagged ΔF508-CFTR expressing CFBE cells, intrinsic corrector capacity
- Type: cell-based
- Design: concentration or dose not given beside the values
- Details: HRP-tagged ΔF508-CFTR expressing CFBE41o- cells; compound alone (intrinsic corrector capacity); 20 hours at 33° C.
% Activation of 200% or higher: Met. Under 200%: Not met.

Sample answers from the record:
COCCN(C)c1cc(C(=O)NS(C)(=O)=O)nc2c1c(C1CCC1)nn2-c1ccccc1
Not met
COCCN(C)c1ccc(-c2cc(C(=O)NS(C)(=O)=O)nc3c2c(C(C)C)nn3-c2cccc(C(F)(F)F)c2)cc1
Met

hey, is % Activation for this one >= 200%? CS(=O)(=O)NC(=O)c1cc(N2CC3(CCCCC3)C2)c2c(C3CCC3)nn(-c3ccccc3)c2n1
Not met

hey, is % Activation for this one >= 200%? COCCN(C)c1ccc(-c2cc(C(=O)NS(C)(=O)=O)nc3c2c(C(C)C)nn3-c2cccc(N(C)C)c2)cc1
Met
